Attribution: patent US8541418B2

biological target: PLK2 (Homo sapiens, UniProt Q9NYY3); assay: PLK TR-FRET peptide assay, PLK2; assay type: biochemical; conditions: PLK TR-FRET peptide assay, GST-PLK2, 60 min reaction; read-out: Plk2 IC50
Sequence (Q9NYY3 whole entry): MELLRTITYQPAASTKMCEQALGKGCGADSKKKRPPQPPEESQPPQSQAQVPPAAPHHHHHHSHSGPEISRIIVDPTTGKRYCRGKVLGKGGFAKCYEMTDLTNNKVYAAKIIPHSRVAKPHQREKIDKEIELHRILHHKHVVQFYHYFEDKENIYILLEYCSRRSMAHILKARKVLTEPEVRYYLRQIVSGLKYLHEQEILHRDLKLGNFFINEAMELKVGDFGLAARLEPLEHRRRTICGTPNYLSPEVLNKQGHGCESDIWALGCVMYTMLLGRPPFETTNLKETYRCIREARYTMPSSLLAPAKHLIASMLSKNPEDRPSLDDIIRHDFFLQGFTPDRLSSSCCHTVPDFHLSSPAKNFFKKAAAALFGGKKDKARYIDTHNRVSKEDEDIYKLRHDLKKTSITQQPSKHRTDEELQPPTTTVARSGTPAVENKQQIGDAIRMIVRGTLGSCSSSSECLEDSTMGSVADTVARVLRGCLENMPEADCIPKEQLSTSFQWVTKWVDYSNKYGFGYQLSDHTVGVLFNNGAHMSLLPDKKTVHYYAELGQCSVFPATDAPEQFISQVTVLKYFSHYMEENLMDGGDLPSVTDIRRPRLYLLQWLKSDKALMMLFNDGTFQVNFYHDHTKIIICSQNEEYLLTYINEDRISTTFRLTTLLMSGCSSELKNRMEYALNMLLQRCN
MEASURE: IC50

Guide cases for IC50, answers given:
Quick note, IC50 for CC[C@@]12CCCN1c1nc(-n3ccnc3-c3cccc(-c4cccnc4)c3)ncc1N(C)C2=O [Example 272] landed at < 1000 nM

Quick note, IC50 for CC[C@@H]1C(=O)N(C)c2cnc(-n3ncnc3-c3cccc4ncccc34)nc2N1C1CCC1 [Example 215] landed at 1000 to 10000 nM

Quick note, IC50 for CC[C@@H]1C(=O)N(C)c2cnc(-c3cccc(S(C)(=O)=O)c3)nc2N1C1CCCC1 [Example 71] landed at 1000 to 10000 nM

Continue with the compound presented below.
Quick note, IC50 for CC[C@@H]1C(=O)N(C)c2cnc(-n3ccnc3-c3cscn3)nc2N1C1CCCC1 [Example 68] landed at < 1000 nM

----------
Property: IC50; scope: individual compounds
molecular target: PLK1 (Homo sapiens, UniProt P53350); experiment: PLK TR-FRET peptide assay, PLK1; assay type: biochemical; details: GST-PLK1, 60 min reaction
Sequence (P53350 whole entry): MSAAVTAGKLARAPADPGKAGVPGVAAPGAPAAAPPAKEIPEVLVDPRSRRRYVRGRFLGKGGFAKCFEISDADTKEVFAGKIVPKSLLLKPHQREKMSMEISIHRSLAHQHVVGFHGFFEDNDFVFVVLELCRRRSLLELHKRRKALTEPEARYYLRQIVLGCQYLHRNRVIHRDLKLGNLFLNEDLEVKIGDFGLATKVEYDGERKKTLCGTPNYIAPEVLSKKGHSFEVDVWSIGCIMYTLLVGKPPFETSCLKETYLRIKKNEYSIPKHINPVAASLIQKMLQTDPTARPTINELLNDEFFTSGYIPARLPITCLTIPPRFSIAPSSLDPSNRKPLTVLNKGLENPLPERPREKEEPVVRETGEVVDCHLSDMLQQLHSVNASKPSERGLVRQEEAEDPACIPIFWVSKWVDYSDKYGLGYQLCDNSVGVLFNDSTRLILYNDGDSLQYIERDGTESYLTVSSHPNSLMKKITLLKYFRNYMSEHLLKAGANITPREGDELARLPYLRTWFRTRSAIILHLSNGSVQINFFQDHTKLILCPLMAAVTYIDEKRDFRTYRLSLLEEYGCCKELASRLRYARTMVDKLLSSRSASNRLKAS

Quick note, IC50 for CC(C)N1c2nc(-n3ccnc3-c3ccccc3)ncc2N(C)C(=O)C12CCC2 [Example 289] landed at 1 to 10 µM

Quick note, IC50 for CCC1C(=O)N(C)c2cnc(-n3ccnc3)nc2N1c1cccc(-c2cncnc2)c1 (centres unmarked) [Example 333] landed at 10 to 50 µM

Quick note, IC50 for CC[C@@H]1C(=O)N(C)c2cnc(-c3ccncc3NC(=O)OC(C)(C)C)nc2N1C1CCCC1 [Example 92] landed at 10 to 50 µM

Further cases:
Quick note, IC50 for CCC12CCCCN1c1nc(-n3ccnc3-c3ccc(F)c(F)c3)ncc1N(C)C2=O (racemic) [Example 240] landed at 1 to 10 µM

Quick note, IC50 for CC[C@@H]1C(=O)N(C)c2cnc(-n3ccnc3-c3ccc(F)cc3F)nc2N1C1CC(F)(F)C1 [Example 260] landed at 1 to 10 µM

Quick note, IC50 for CC[C@@H]1C(=O)N(C)c2cnc(-n3ccnc3Cc3ccccc3)nc2N1C1CCCC1 [Example 75] landed at 1 to 10 µM

Quick note, IC50 for CC[C@@H]1C(=O)N(C)c2cnc(-c3cccc4cccnc34)nc2N1C1CCCC1 [Example 11] landed at > 50 µM

Quick note, IC50 for CCC1C(=O)N(C)c2cnc(-n3ccnc3-c3ccc(F)cc3)nc2N1c1cccc(-c2cncnc2)c1 (centres unmarked) [Example 346] landed at 1 to 10 µM

----------
target: PLK1 (Homo sapiens, UniProt P53350); assay: PLK TR-FRET peptide assay, PLK1; assay type: biochemical; conditions: GST-PLK1
MEASURE: IC50

Guide cases for IC50, answers given:
Quick note, IC50 for `CC[C@H]1C(=O)N(C)c2cnc(-c3cn[nH]c3-c3nccs3)nc2N1c1ccc(Cl)cc1` landed at 10 to 50 µM

Quick note, IC50 for `CC[C@@H]1C(=O)N(C)c2cnc(-c3cnsc3-c3ccc(F)cc3)nc2N1c1cccc(C#N)c1` landed at < 1 µM

Quick note, IC50 for `CC[C@@H]1C(=O)N(C)c2cnc(-c3cn[nH]c3-c3nccs3)nc2N1c1ccc(Cl)cc1` landed at < 1 µM

Quick note, IC50 for CCC1C(=O)N(C)c2cnc(-n3ccnc3-c3ccc(F)cc3)nc2N1c1ccc(Cl)cc1 (stereo not drawn) landed at 1 to 10 µM

Quick note, IC50 for CCC1C(=O)N(C)c2cnc(-c3cnsc3-c3ccc(F)cc3)nc2N1c1cccc(C#N)c1 (racemic) landed at 1 to 10 µM

Quick note, IC50 for `CC[C@@H]1C(=O)N(C)c2cnc(-n3cnc(C(=O)N(C)C)c3)nc2N1C1CCCC1` landed at 1 to 10 µM

Quick note, IC50 for `CC[C@H]1C(=O)N(C)c2cnc(-c3cnsc3-c3ccc(F)cc3)nc2N1c1cccc(C#N)c1` landed at > 50 µM

Quick note, IC50 for `CC[C@@H]1C(=O)N(C)c2cnc(-c3cn[nH]c3-c3nccs3)nc2N1c1ccc(F)c(F)c1` landed at < 1 µM

Further cases:
Quick note, IC50 for `CC[C@H]1C(=O)N(C)c2cnc(-c3cn[nH]c3-c3nccs3)nc2N1c1ccc(F)c(F)c1` landed at 10 to 50 µM

----------
biological target: UniProt:Q9H4B4; experiment: PLK TR-FRET peptide assay, PLK3; format: biochemical; settings: GST-PLK3, read-out: Plk3 IC50
Sequence (Q9H4B4 whole entry): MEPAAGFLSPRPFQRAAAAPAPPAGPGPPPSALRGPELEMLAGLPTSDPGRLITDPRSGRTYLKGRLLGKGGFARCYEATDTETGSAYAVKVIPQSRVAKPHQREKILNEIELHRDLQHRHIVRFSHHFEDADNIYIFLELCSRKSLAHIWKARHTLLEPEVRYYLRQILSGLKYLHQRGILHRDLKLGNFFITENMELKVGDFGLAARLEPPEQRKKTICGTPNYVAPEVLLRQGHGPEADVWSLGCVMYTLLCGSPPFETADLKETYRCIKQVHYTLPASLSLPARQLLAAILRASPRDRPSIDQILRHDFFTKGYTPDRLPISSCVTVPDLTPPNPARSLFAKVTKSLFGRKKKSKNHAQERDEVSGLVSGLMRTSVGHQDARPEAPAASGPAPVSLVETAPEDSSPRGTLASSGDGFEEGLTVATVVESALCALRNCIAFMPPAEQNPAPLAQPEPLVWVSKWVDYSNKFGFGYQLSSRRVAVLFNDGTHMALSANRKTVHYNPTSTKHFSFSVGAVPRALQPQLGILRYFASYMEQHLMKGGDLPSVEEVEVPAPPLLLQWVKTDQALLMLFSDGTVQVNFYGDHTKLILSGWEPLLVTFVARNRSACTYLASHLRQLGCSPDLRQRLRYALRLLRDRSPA
Property: IC50; scope: individual compounds

Guide cases for IC50, answers given:
Quick note, IC50 for `CC[C@@H]1C(=O)N(C)c2cnc(-c3cn[nH]c3-c3nccs3)nc2N1c1ccc(F)c(F)c1` landed at 1 to 10 µM

Quick note, IC50 for `CC[C@@H]1C(=O)N(C)c2cnc(-c3cn[nH]c3-c3nccs3)nc2N1c1ccc(Cl)cc1` landed at < 1 µM

Quick note, IC50 for `CC[C@H]1C(=O)N(C)c2cnc(-c3cn[nH]c3-c3nccs3)nc2N1c1ccc(Cl)cc1` landed at > 50 µM

Quick note, IC50 for `CC[C@H]1C(=O)N(C)c2cnc(-c3cn[nH]c3-c3nccs3)nc2N1c1ccc(F)c(F)c1` landed at > 50 µM

Quick note, IC50 for `CC[C@@H]1C(=O)N(C)c2cnc(-n3cnc(C(=O)N(C)C)c3)nc2N1C1CCCC1` landed at 10 to 50 µM

Quick note, IC50 for CCC1C(=O)N(C)c2cnc(-c3cnsc3-c3ccc(F)cc3)nc2N1c1cccc(C#N)c1 (racemic) landed at 1 to 10 µM

Quick note, IC50 for CCC1C(=O)N(C)c2cnc(-n3ccnc3-c3ccc(F)cc3)nc2N1c1ccc(Cl)cc1 (stereo not drawn) landed at 1 to 10 µM

Quick note, IC50 for `CC[C@@H]1C(=O)N(C)c2cnc(-c3cnsc3-c3ccc(F)cc3)nc2N1c1cccc(C#N)c1` landed at < 1 µM

Continue with the compound presented below.
Quick note, IC50 for `CC[C@H]1C(=O)N(C)c2cnc(-c3cnsc3-c3ccc(F)cc3)nc2N1c1cccc(C#N)c1` landed at > 50 µM

----------
target: PLK2 (Homo sapiens); experiment: PLK TR-FRET peptide assay, PLK2; assay type: biochemical; conditions: PLK TR-FRET peptide assay, GST-PLK2, 60 min reaction; read-out: Plk2 IC50
pIC50: −log10 of the molar value.
Property: pIC50; scope: individual compounds

Quick note, pIC50 for `CC[C@@H]1C(=O)N(C)c2cnc(-c3ccccc3C(F)(F)F)nc2N1C1CCC1` landed at 5.00 to 6.00

Further cases:
Quick note, pIC50 for `CC[C@@H]1C(=O)N(C)c2cnc(-c3ccncc3NS(=O)(=O)c3ccccc3)nc2N1C1CCCC1` landed at 4.30 to 5.00

Quick note, pIC50 for `CC[C@@]12CCCN1c1nc(-n3ccnc3)ncc1N(C)C2=O` landed at 4.30 to 5.00

Quick note, pIC50 for `CC[C@@H]1C(=O)N(C)c2cnc(-n3ccnc3C)nc2N1C1CCCC1` landed at > 6.00

Quick note, pIC50 for `CC[C@@H]1C(=O)N(C)c2cnc(-n3ccnc3-c3nccs3)nc2N1C1CCC1` landed at > 6.00

Quick note, pIC50 for `CN1C(=O)[C@H]2CCCN2c2nc(-c3ccncc3)ncc21` landed at < 4.30

Quick note, pIC50 for CCC12CCCCCN1c1nc(-n3ccnc3-c3ccccc3)ncc1N(C)C2=O (racemic) landed at > 6.00

Quick note, pIC50 for `CC[C@@H]1C(=O)N(C)c2cnc(-c3cccc(C(=O)N(C)C)c3)nc2N1C1CCCC1` landed at 5.00 to 6.00

----------
biological target: UniProt Q9H4B4; assay: PLK TR-FRET peptide assay, PLK3; format: biochemical; conditions: GST-PLK3, 15 min reaction, read-out: Plk3 IC50
pIC50: −log10 of the molar value.
Property: pIC50; scope: individual compounds

Guide cases for pIC50, answers given:
Quick note, pIC50 for CC[C@@H]1C(=O)N(C)c2cnc(-c3cccc(C(N)=O)c3)nc2N1C1CCCC1 [Example 66] landed at 5.00 to 6.00

Quick note, pIC50 for CC[C@@H]1C(=O)N(C)c2cnc(-n3ccnc3-c3ccccc3F)nc2N1C1CCC1 [Example 49] landed at 5.00 to 6.00

Quick note, pIC50 for CC[C@]1(C)C(=O)N(C)c2cnc(-c3cn[nH]c3-c3nccs3)nc2N1CCC(F)(F)F [Example 310] landed at < 4.30

Quick note, pIC50 for [2H]C([2H])([2H])N1C(=O)C(C([2H])([2H])C([2H])([2H])[2H])N(C([2H])(C([2H])([2H])[2H])C([2H])([2H])[2H])c2nc(-n3ccnc3-c3ccc(OC(F)(F)F)cc3)ncc21 (stereo not shown) [Example 170] landed at < 4.30

Quick note, pIC50 for CC[C@@H]1C(=O)N(C)c2cnc(-c3cccc(S(C)(=O)=O)c3)nc2N1C1CCCC1 [Example 71] landed at 4.30 to 5.00

Further cases:
Quick note, pIC50 for CN1C(=O)[C@@H](CC(F)(F)F)N(CCC(F)(F)F)c2nc(-n3ccnc3)ncc21 [Example 301] landed at 4.30 to 5.00

Quick note, pIC50 for CC[C@@]12CCCN1c1nc(-n3ccnc3-c3ccc(Cl)s3)ncc1N(C)C2=O [Example 218] landed at 4.30 to 5.00
